Kindly supply the reported EC50 values for the records listed here.
Molecular target: human activated kallikrein enzyme (Homo sapiens)
Experiment: Plasma kallikrein inhibition, fluorogenic PFR-AMC substrate, 500 pM activated kallikrein format
Format: biochemical
Conditions: 500 pM activated kallikrein, 300 uM PFR-AMC, 30 min preincubation, 10 min reaction; read-out: Primary Dose Response Assay: Average EC50

query: Query: EC50; subject: CC1CCC(=O)N1c1cc(C2CC2)cn2cc(CNc3ccnc(NC(=O)[C@H]4C[C@@H]4c4cccc(Cl)c4)c3)nc12 (mixture of isomers)
result: < 1 nM

query: Query: EC50; subject: O=C(Nc1cc(NCc2nc3ccc(C4CC4)cn3c2Cl)ncn1)[C@H]1C[C@@H]1c1cccc(Cl)c1 (racemic)
result: 1000 to 6000 nM

query: Query: EC50; subject: Cc1ccnc([C@H]2C[C@@H]2C(=O)Nc2cc(NCc3cn4cc(C5CC5)cc(N5CC(=O)N(C)C5=O)c4n3)ncn2)n1 (racemic) [Example I-259]
result: < 1 nM

query: Query: EC50; subject: `CCC(=O)O[C@H]1C[C@H](c2cn3cc(C4CC4)cc(N4CC(=O)N(C)C4=O)c3n2)N(c2cc(NC(=O)[C@H]3C[C@@H]3c3nccc(C)n3)ncn2)C1`
result: 10 to 100 nM

query: Query: EC50; subject: `Cc1ccnc([C@H]2C[C@@H]2C(=O)Nc2cc(OCc3ccccc3)cc(OCc3cn4cc(C5CC5)cc(N5CC(=O)N(C)C5=O)c4n3)n2)n1`
result: 10 to 100 nM

query: Query: EC50; subject: O=C(Nc1cc(NCc2cn3cc(C4CC4)cc(N4CCNC(C(F)(F)F)C4)c3n2)ccn1)[C@H]1C[C@@H]1c1cccc(Cl)c1 (stereo partly drawn)
result: 1 to 10 nM

----------
Kindly supply the reported EC50 values for the records listed here.
Molecular target: human activated kallikrein enzyme (Homo sapiens, UniProt P03952)
Sequence (P03952 391-638 limits assumed): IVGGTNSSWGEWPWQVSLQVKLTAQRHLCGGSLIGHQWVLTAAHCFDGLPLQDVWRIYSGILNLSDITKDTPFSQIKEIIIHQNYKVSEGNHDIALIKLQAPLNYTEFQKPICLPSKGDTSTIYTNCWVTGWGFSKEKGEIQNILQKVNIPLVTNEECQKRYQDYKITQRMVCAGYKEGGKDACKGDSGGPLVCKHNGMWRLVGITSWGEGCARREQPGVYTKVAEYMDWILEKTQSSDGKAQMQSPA
Sequence (P03952 20-390 partner limits assumed): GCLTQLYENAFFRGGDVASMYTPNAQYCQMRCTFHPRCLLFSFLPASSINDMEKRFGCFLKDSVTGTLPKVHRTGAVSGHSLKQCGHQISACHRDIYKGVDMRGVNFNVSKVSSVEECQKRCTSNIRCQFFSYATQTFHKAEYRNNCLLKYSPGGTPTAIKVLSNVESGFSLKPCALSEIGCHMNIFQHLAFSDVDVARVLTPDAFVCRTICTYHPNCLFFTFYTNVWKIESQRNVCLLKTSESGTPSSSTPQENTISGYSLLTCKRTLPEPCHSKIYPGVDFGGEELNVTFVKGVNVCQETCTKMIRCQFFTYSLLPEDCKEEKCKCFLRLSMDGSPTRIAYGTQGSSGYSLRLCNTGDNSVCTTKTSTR
Assay: Plasma kallikrein inhibition, fluorogenic PFR-AMC substrate, 500 pM activated kallikrein format
Format: biochemical
Conditions: 500 pM activated kallikrein, 300 uM PFR-AMC, 30 min preincubation, 10 min reaction; read-out: Primary Dose Response Assay: Average EC50

query: Query: EC50; subject: Cc1ccnc([C@H]2C[C@@H]2C(=O)Nc2cccc(NCc3cn4cc(C5CC5)cc(N5CC(=O)N(C)C5=O)c4n3)c2)n1 [Example I-644]
result: < 1 nM

query: Query: EC50; subject: C[C@H]1[C@H](C(=O)Nc2cc(NCc3cn4cc(C5CC5)ccc4n3)ncn2)[C@H]1c1cccc(Cl)c1 (single isomer, unassigned) [Example 508]
result: > 6000 nM

query: Query: EC50; subject: O=C(Nc1cc(NCc2cn3cc(C4CC4)cc(N4CCS(=O)(=O)CC4)c3n2)ncn1)[C@H]1C[C@@H]1c1cc(Cl)ccn1 [Example 326]
result: < 1 nM

query: Query: EC50; subject: O=C(Nc1cc(NCc2cn3cc(C4CC4)ccc3n2)ncn1)[C@H]1C[C@@H]1c1ncn2ccc(Cl)c(F)c12 (racemic) [Example 504]
result: 10 to 100 nM

query: Query: EC50; subject: COCCN1CCN(c2cc(C3CC3)cn3cc(CNc4ccnc(NC(=O)[C@H]5C[C@@H]5c5cccc(Cl)c5)c4)nc23)CC1 [Example 599]
result: < 1 nM

query: Query: EC50; subject: Cc1ccnc([C@H]2C[C@@H]2C(=O)Nc2cc(O[C@@H](C)c3cn4cc(C5CC5)cc(N5CC(=O)N(C)C5=O)c4n3)cnn2)n1 (single isomer, unassigned) [Example 41]
result: 10 to 100 nM

query: Query: EC50; subject: CC(NC(=O)[C@H]1C[C@@H]1c1cccc(Cl)c1)c1cn(Cc2cn3cc(C4CC4)ccc3n2)nn1 (single isomer, unassigned) [Example 589]
result: 10 to 100 nM

query: Query: EC50; subject: O=C(Nc1cncnc1NCc1cn2cc(C3CC3)ccc2n1)[C@H]1C[C@@H]1c1cccc(Cl)c1 (racemic) [Example 78]
result: 100 to 1000 nM

query: Query: EC50; subject: O=C(Nc1cc(NCc2cn3cc(C4CC4)cc(N4CCC(O)CC4)c3n2)ncn1)[C@H]1C[C@@H]1c1cccc(Cl)c1 (stereo in doubt) [Example I-3]
result: 1 to 10 nM

query: Query: EC50; subject: Cc1ccnc([C@H]2C[C@@H]2C(=O)Nc2ncc3c(n2)N(Cc2cn4cc(C5CC5)cc(N5CC(=O)N(C)C5=O)c4n2)CCO3)n1 [Example 631]
result: < 1 nM

query: Query: EC50; subject: CN1CCC(O)(c2cc(C3CC3)cn3cc(CNc4ccnc(NC(=O)[C@H]5C[C@@H]5c5cccc(Cl)c5)c4)nc23)CC1 [Example 488]
result: < 1 nM

query: Query: EC50; subject: O=C(O)CCc1cc(C2CC2)cn2cc(CNc3cc(NC(=O)[C@H]4C[C@@H]4c4cccc(Cl)c4)ncn3)nc12 (racemic) [Example 72]
result: 1 to 10 nM

----------
Target: human activated kallikrein enzyme (Homo sapiens, UniProt P03952)
Test: Plasma kallikrein inhibition, fluorogenic PFR-AMC substrate, 500 pM activated kallikrein format
Format: biochemical
Conditions: 500 pM activated kallikrein, 300 uM PFR-AMC, 30 min preincubation, 10 min reaction; read-out: Primary Dose Response Assay: Average EC50
value-kind: EC50

query: Query: EC50; subject: O=C(Nc1cc(NCc2cn3cc(C4CC4)cc(C(O)C4CNC4)c3n2)ccn1)[C@H]1C[C@@H]1c1cccc(Cl)c1 (stereo partly drawn)
result: < 1 nM

query: Query: EC50; subject: O=C(Nc1cc(NCc2cn3cc(C4CC4)cc(N4C[C@@H](O)CC4=O)c3n2)ncn1)[C@H]1C[C@@H]1c1cccc(Cl)c1 (relative stereo)
result: 1 to 10 nM

query: Query: EC50; subject: COc1ccc(C#N)c([C@H]2C[C@@H]2C(=O)Nc2cc(OCc3cn4cc(C5CC5)cc(N5CC(=O)N(C)C5=O)c4n3)cnn2)c1 (racemic)
result: 1 to 10 nM

query: Query: EC50; subject: O=C(Nc1cc(NCc2cn3cc(C4CC4)ccc3n2)ncn1)[C@H]1C[C@@H]1c1cc(Cl)cs1 (racemic)
result: 10 to 100 nM

query: Query: EC50; subject: Cc1ccnc([C@H]2C[C@@H]2C(=O)Nc2nc(NCc3cn4cc(C5CC5)cc(N5CC(=O)N(C)C5=O)c4n3)cc(C3CC3)n2)n1 (racemic)
result: < 1 nM

query: Query: EC50; subject: Cc1ccnc([C@H]2C[C@@H]2C(=O)Nc2cc(OCc3cn4cc(C5CC5)cc(N5CC(=O)N(CCOCc6ccccc6)C5=O)c4n3)ncn2)n1 (racemic)
result: 1 to 10 nM

----------
Kindly supply the reported pEC50 values for the records listed here.
Target: human activated kallikrein enzyme (Homo sapiens, UniProt P03952)
Experiment: Plasma kallikrein inhibition, fluorogenic PFR-AMC substrate, 500 pM activated kallikrein format
Assay type: biochemical
Details: 500 pM activated kallikrein, 300 uM PFR-AMC, 30 min preincubation, 10 min reaction; read-out: Primary Dose Response Assay: Average EC50
pEC50: −log10 of the molar value.

query: Query: pEC50; subject: Cc1ccnc([C@H]2C[C@@H]2C(=O)Nc2cc(NCc3cn4cc(C5CC5)cc(N5CC(=O)N(C)C5=O)c4n3)nc(CF)n2)n1 (racemic)
result: > 9.00

query: Query: pEC50; subject: Cc1ccnc([C@@]2(F)C[C@@H]2C(=O)Nc2cc(NCc3cn4cc(C5CC5)cc(N5CC(=O)N(C)C5=O)c4n3)ncn2)n1 (racemic)
result: > 9.00

query: Query: pEC50; subject: Cc1ccnc([C@H]2C[C@@H]2C(=O)Nc2nc(C)nc(N(C)Cc3cn4cc(C5CC5)cc(N5CC(=O)NC5=O)c4n3)n2)n1 (racemic)
result: > 9.00

query: Query: pEC50; subject: O=C(Nc1cc(NCc2cn3cc(C4CC4)ccc3n2)ncn1)[C@H]1C[C@@H]1c1cc(Cl)ccc1OC(F)F (racemic)
result: 7.00 to 8.00

query: Query: pEC50; subject: COc1cc([C@H]2C[C@@H]2C(=O)Nc2cc(NCc3cn4cc(C5CC5)ccc4n3)ccn2)cc(N)n1 (racemic)
result: 7.00 to 8.00

query: Query: pEC50; subject: O=C(Nc1cc(NCc2cn3cc(C4CC4)ccc3n2)ccn1)[C@H]1C[C@@H]1c1cncc(Cl)c1 (racemic)
result: 7.00 to 8.00

query: Query: pEC50; subject: `Cc1ccnc([C@H]2C[C@@H]2C(=O)Nc2cc(NCc3cn4cc(C5CC5)cc(N5CC(=O)N(CC(=O)O)C5=O)c4n3)ncn2)n1`
result: > 9.00

query: Query: pEC50; subject: COCCOc1ccc(Cl)cc1[C@H]1C[C@@H]1C(=O)Nc1cc(NCc2cn3cc(C4CC4)ccc3n2)ncn1 (racemic)
result: 6.00 to 7.00

query: Query: pEC50; subject: C[C@H]1[C@H](C(=O)Nc2cc(NCc3cn4cc(C5CC5)ccc4n3)ncn2)[C@H]1c1cccc(Cl)c1 (single isomer, unassigned) [Example 506]
result: < 5.22

query: Query: pEC50; subject: O=C(Nc1cc(Cc2cn3cc(C4CC4)ccc3n2)ncn1)[C@H]1C[C@@H]1c1cccc(Cl)c1 (racemic)
result: 6.00 to 7.00

query: Query: pEC50; subject: `CN(C)S(=O)(=O)c1cc(C2CC2)cn2cc(CNc3cc(NC(=O)[C@H]4C[C@@H]4c4cccc(Cl)c4)ncn3)nc12`
result: 8.00 to 9.00

query: Query: pEC50; subject: N#Cc1ccc(Cl)cc1[C@H]1C[C@@H]1C(=O)Nc1cc(C(O)c2cn3cc(C4CC4)ccc3n2)ncn1 (relative stereo)
result: 7.00 to 8.00

query: Query: pEC50; subject: N#Cc1cc(C2CC2)cn2cc(CNc3ccnc(NC(=O)[C@@H]4C[C@H]4c4cccc(Cl)c4)c3)nc12 (racemic)
result: 8.00 to 9.00
